- experimental target: T1, 4H63-AA
- T1 chain: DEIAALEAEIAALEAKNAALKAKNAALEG
- assay method text: two-hybrid library CCmax;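 note: natural log of median RNA to DNA barcode read ratio; higher means stronger binding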
- details: mean of both orientations
Each record's interaction score is compared with low group: < -1; middle group: ≥ -1 and < -0.02; high group: ≥ -0.02 to give its class.

The examples below pair each entry with its known result.
binder	class name
DEIAALEAKIAALKAENAALEAKIAALEG [4H341-AA]	high group
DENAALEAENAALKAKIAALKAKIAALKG [4H1262-AA]	middle group
DKNAALKAENAALKAEIAALEAEIAALEG [4H3777-AA]	low group
DENAALKAKIAALKAENAALEAKIAALKG [4H1878-AA]	high group
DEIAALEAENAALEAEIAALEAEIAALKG [4H130-AA]	low group

## Input Dear colleague, I would appreciate it if you could identify the bin for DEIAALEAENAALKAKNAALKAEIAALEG [4H249-AA] and reply at your convenience.
## Output low group

## Input Dear colleague, I would appreciate it if you could identify the bin for DENAALEAKIAALKAEIAALKAKNAALKG [4H1360-AA] and reply at your convenience.
## Output high group
